Aurora B (Homo sapiens, UniProt Q96GD4): reported pKi for various compounds.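 Also: aurora B inhibition measured in a mobility shift assay, underlying mean IC50 taken from two independent duplicate runs at 8 compound concentrations.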
The value called pKi is obtained by taking minus log10 of the concentration in mol/L.

Example compounds with recorded pKi:
{"INPUT_SMILES": "Nc1cc(-c2cncnc2)c[nH]c1=O", "RECORDED_ENDPOINT": "pKi", "ASSAY_RESULT": 4.73}
{"INPUT_SMILES": "Cc1nc(O)c(N)cc1-c1ccncc1", "RECORDED_ENDPOINT": "pKi", "ASSAY_RESULT": 4.59}
{"INPUT_SMILES": "Nc1cc(-c2ccnc3ccccc23)c[nH]c1=O", "RECORDED_ENDPOINT": "pKi", "ASSAY_RESULT": 4.38}
{"INPUT_SMILES": "Nc1cc(-c2ccnc(NC3CC3)n2)c[nH]c1=O", "RECORDED_ENDPOINT": "pKi", "ASSAY_RESULT": 4.92}
{"INPUT_SMILES": "Nc1ccc[nH]c1=O", "RECORDED_ENDPOINT": "pKi", "ASSAY_RESULT": 3.80}
{"INPUT_SMILES": "O=C(Nc1cc(-c2ccnc(NC3CC3)n2)c[nH]c1=O)c1ccccc1", "RECORDED_ENDPOINT": "pKi", "ASSAY_RESULT": 5.44}

Switching to the query record.
Lookup: May I ask what pKi has been recorded for CNc1nccc(-c2c[nH]c(=O)c(N)c2)n1 ?
Found: 4.82

###

- ASSAY_TARGET: AurB (Homo sapiens)
- Sequence (Q96GD4 whole entry): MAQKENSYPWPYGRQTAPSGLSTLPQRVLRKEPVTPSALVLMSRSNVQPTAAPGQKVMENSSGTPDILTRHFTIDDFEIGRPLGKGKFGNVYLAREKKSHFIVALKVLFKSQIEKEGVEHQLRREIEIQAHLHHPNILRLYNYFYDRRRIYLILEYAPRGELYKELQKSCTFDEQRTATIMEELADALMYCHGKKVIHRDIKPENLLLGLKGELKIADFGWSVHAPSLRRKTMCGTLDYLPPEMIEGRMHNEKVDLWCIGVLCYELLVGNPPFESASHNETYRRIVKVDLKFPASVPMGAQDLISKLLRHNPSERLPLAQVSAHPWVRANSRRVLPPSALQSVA
- TEST_DETAILS: 26-kinase panel mobility shift assay, single concentration
- Type: biochemical
- SETTINGS: read-out: % Inhibition AurB
RECORDED_ENDPOINT: inhibition at 100 µM (%)
The reply should contain only the number, in %.

Example compounds with recorded inhibition at 100 µM:
{"INPUT_SMILES": "Cn1cc(-c2c[nH]c(=O)c(N)c2)cn1", "inhibition at 100 µM (%)": 96}
{"INPUT_SMILES": "Nc1cc(-c2ccnc(NC3CC3)n2)c[nH]c1=O", "inhibition at 100 µM (%)": 79}

Lookup: May I ask what inhibition at 100 µM has been recorded for Cc1nc(O)c(N)cc1-c1ccncc1 ?
Found: 77

Lookup: # iterate: COc1ncc(-c2ccncc2)cc1N
Found: 35

Lookup: # iterate: CNc1nccc(-c2c[nH]c(=O)c(N)c2)n1
Found: 94

Lookup: # iterate: Nc1cc(-c2ccnc3ccccc23)c[nH]c1=O
Found: 61

Lookup: # iterate: Nc1ccc[nH]c1=O
Found: 20

###

inhibition at 100 µM listing for selected compounds.
- ASSAY_TARGET: MET (Homo sapiens, UniProt P08581)
- Construct: purchased Perkin Elmer (ProfilerPro assay kit 1)
- Sequence (P08581 25-1390): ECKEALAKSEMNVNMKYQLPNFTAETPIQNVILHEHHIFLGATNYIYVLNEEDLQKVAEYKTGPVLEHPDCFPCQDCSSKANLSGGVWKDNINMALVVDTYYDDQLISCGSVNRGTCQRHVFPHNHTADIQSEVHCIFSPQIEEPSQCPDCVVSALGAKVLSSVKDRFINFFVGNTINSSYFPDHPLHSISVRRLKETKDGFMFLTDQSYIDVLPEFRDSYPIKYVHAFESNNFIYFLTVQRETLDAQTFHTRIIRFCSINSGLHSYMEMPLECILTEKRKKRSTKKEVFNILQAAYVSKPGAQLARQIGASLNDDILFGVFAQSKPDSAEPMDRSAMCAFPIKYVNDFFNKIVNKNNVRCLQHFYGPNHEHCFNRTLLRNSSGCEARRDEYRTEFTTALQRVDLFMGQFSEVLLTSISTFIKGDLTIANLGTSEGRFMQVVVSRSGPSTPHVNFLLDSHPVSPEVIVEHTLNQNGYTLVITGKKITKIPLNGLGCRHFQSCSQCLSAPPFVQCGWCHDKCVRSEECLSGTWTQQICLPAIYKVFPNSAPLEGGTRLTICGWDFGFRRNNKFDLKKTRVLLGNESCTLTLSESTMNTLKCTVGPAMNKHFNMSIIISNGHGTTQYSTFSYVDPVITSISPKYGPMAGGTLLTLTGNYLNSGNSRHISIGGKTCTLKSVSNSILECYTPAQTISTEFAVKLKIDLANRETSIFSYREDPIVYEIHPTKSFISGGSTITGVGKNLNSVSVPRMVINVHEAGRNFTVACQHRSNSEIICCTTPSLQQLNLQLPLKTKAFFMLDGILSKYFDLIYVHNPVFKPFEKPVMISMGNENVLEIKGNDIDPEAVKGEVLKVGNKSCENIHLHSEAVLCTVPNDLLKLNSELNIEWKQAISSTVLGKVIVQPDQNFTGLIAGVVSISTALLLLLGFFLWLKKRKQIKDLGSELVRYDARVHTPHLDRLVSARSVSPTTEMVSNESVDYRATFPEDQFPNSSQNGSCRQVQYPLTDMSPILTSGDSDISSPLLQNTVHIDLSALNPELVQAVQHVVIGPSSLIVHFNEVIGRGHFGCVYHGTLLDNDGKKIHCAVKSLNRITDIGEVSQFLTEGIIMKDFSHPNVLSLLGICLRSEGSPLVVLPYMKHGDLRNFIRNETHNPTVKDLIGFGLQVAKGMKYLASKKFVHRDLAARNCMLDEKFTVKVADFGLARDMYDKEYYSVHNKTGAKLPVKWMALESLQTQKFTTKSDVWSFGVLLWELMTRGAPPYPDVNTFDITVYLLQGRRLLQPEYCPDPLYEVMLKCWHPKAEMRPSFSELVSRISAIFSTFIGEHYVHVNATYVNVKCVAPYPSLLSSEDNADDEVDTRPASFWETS
- TEST_DETAILS: 26-kinase panel mobility shift assay, single concentration
- Assay type: biochemical
- SETTINGS: read-out: % Inhibition MET
The reply should contain only the number, in %.

Example compounds with recorded inhibition at 100 µM:
{"INPUT_SMILES": "CNc1nccc(-c2c[nH]c(=O)c(N)c2)n1", "VALUE_UNITS": "%", "inhibition at 100 µM": 76}
{"INPUT_SMILES": "Nc1ccc[nH]c1=O", "VALUE_UNITS": "%", "inhibition at 100 µM": 33}
{"INPUT_SMILES": "Cc1nc(O)c(N)cc1-c1ccncc1", "VALUE_UNITS": "%", "inhibition at 100 µM": 14}
{"INPUT_SMILES": "Cn1cc(-c2c[nH]c(=O)c(N)c2)cn1", "VALUE_UNITS": "%", "inhibition at 100 µM": 81}
{"INPUT_SMILES": "Nc1cc(-c2ccnc3ccccc23)c[nH]c1=O", "VALUE_UNITS": "%", "inhibition at 100 µM": 19}
{"INPUT_SMILES": "Nc1cc(-c2ccnc(NC3CC3)n2)c[nH]c1=O", "VALUE_UNITS": "%", "inhibition at 100 µM": 26}

Switching to the query record.
Lookup: May I ask what inhibition at 100 µM has been recorded for COc1ncc(-c2ccncc2)cc1N ?
Found: 18
